- Experiment Notes: Bioavailability in monkeys
- Test Context: monkey, in vivo, oral
Observed Property: bioavailability

Exercise: Tell me bioavailability reported for COC(=O)NCCCn1nc([C@@H](C)N(C(=O)C2CNCCO2)C2CC2)c2ccc(C)nc21 (stereo partly shown) [Formula (I)]
Key: 3.3 to 11.3%

---

- Experiment Notes: Bioavailability in rats
- Test Context: rat, in vivo, oral
Observed Property: bioavailability

Exercise: Specify measured bioavailability for COC(=O)NCCCn1nc([C@@H](C)N(C(=O)C2CNCCO2)C2CC2)c2ccc(C)nc21 (stereo partly shown) .
Key: 11.5 to 24.5%

Data origin: patent US20230398123A1
